Data origin, for the record: patent US20190225691A1

Target: T1, human PD-L1 ECD-His (human, UniProt Q9NZQ7 19-238)
T1 construct: extracellular domain; Analyte in all SPR and BLI runs; also called hPD-L1_ECD-His; hPD-L1 ECD-His; not shown: His tag
T1 sequence (Q9NZQ7 19-238): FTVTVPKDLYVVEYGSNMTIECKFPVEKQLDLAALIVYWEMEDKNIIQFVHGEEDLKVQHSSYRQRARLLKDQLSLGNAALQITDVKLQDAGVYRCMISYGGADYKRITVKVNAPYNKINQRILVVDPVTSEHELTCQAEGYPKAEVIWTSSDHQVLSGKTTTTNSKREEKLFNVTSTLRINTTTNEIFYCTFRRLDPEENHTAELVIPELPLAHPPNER
Assay Details: BLI Octet RED96, antibody on AHC anti-human-Fc sensor, hPD-L1-His analyte, 1:1 fit
Parameter Measured: pKd
The meaning of pKd here: minus log10 of the concentration in molar units.

[in] Using the record for PL3#7-19 deglyco3 mtIgG1 (antibody, V domains shown, N297A mutant human IgG1) VH: QVQLVQSGAEVKKPGSSVKVSCKASGGTFSSYPISWVRQAPGQGLEWMGRIIPILGIANYAQKFQGRVTITADKSTSTAYMELSSLRSEDTAVYYCARSRDGYAFGAFDVWGQGTLVTVSS VL: QSVVTQPPPVSGAPGQRVTISCTGSSSNIGGGYDVHWYQQLPGTAPKLLIYGNSQRPSGVPDRFSGSKSGTSASLAITGLQAEDEADYYCQTYDSSLSATVVFGGGTKLTVLG , report its pKd.
[out] 9.45
